Sourced from ChEMBL document CHEMBL1151715

- System: L6
- PROTOCOL SUMMARY: Increase in [3H]2-deoxy-D-glucose uptake in rat L6 cells preincubated with 23 mM D-glucose for 24 hrs at 5 mM after 7 hrs relative to control
- Assay type: functional
MEASURED ENDPOINT: fold change (FC)
Please give the numeric answer without any surrounding text.

The value of fold change (FC) recorded for `CO[C@H]1OC[C@@H](O)[C@H](O)[C@H]1O` when tested on L6 reads 1.98

Measured on L6, CO[C@H]1[C@H](O)COC(O)[C@@H]1O (some centres undefined) has a documented fold change (FC) of 2.1

Note to self: fold change (FC) of CCO[C@H]1[C@H](O)COC(O)[C@@H]1O (some centres undefined) with L6 was 2.79

Reported fold change (FC) (L6) for entry CCCO[C@H]1[C@H](O)COC(O)[C@@H]1O (some centres undefined) is 3.89

* * *

- PROTOCOL SUMMARY: Cytotoxicity against rat L6 cells by MTT assay
- Type: cell-based
Below: a set of entries, each annotated with reported log10 of MCC.
In our notation, the value equals log10 of MCC in µM.

CCOC1OC[C@@H](O)[C@H](O)[C@H]1O (stereo partly specified) = 4.70

Note to self: log10 of MCC recorded for COC[C@H]1OC(O)[C@H](O)[C@H]1O (stereo partly specified) was 4.70

Sure, the documented log10 of MCC for `CCS[C@@H]1OC[C@@H](O)[C@H](O)[C@H]1O` is 3.00

Reported log10 of MCC of `O[C@@H]1[C@@H](O)[C@@H](OCc2ccccc2)OC[C@H]1O` : 2.70

`CCCCCCCCCCCC(=O)S[C@@H]1OC[C@@H](O)[C@H](O)[C@H]1O` yielded log10 of MCC of 2.60

COC(OC)[C@@H]1OC(c2ccc(F)cc2)O[C@@H]2COC(c3ccc(F)cc3)O[C@@H]21 (stereo partly specified) has a reported log10 of MCC of 2.40

log10 of MCC measured on COC(OC)[C@@H]1OC(c2ccccc2)O[C@@H]2COC(c3ccccc3)O[C@@H]21 (stereo partly specified) = 2.48

* * *

- System: L6
- PROTOCOL SUMMARY: Effect on [3H]2-deoxy-D-glucose uptake in rat L6 cells at 20 mM upto 48 hrs relative to control
- Assay type: functional
Use MET when the recorded fold change (FC) is no lower than 1; use NOT MET when it is lower.

The following compounds have reported results that may help.
CC(=O)O[C@@H]1OC[C@@H](OC(C)=O)[C@H](OC(C)=O)[C@H]1OC(C)=O = MET
COC[C@H]1OC(O)[C@H](O)[C@H]1O (stereo not given in full) = MET

We next turn to a different compound, shown below.
Q. Hello, I need to know if CCCCO[C@H]1[C@H](O)COC(O)[C@@H]1O (stereo not given in full) has measured fold change (FC) not below 1. Thanks!
A. NOT MET

* * *

Overview of recorded MCC for various compounds
- PROTOCOL SUMMARY: Cytotoxicity against rat L6 cells by MTT assay
- Type: cell-based
In your response, put the unit directly after the numeric value.

These recorded examples may help you get a feel for the data.
CO[C@@H]1OC[C@@H](OC(=O)c2ccccc2)[C@H](OC(=O)c2ccccc2)[C@H]1OC(=O)c1ccccc1 = 250 µM
CC1(C)O[C@H]2O[C@H](CO)[C@H](O)[C@H]2O1 = 150 µM
CCCCO[C@H]1[C@H](O)COC(O)[C@@H]1O (stereo not given in full) = 1000 µM
O[C@@H]1[C@@H](O)[C@@H](OC2=CC=CCO2)OC[C@H]1O = 5000 µM
CO[C@@H]1COC(O)[C@H](O)[C@H]1O (stereo not given in full) = 50000 µM

For this compound ( `CC(=O)O[C@@H]1OC[C@@H](OC(C)=O)[C@H](OC(C)=O)[C@H]1OC(C)=O` ), measured MCC is 500 µM

Reported MCC for `CO[C@@H]1OC[C@@H](OC(=O)C(C)(C)C)[C@H](OC(=O)C(C)(C)C)[C@H]1OC(=O)C(C)(C)C` was 150 µM
